# TEST_DESCRIPTION: cytotoxicity in HPDE-C7 cells, cell-based, fluorescence, HTS (AID 430);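 note: cells exposed to compound for 48 hours before viability readout; 0% = vehicle and 100% = reference cytotoxic drug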
# DETAILS: HPDE-C7 pancreatic duct cells viability, at 10 µM, active compounds read high
Among all 63,000 compounds or so, about 1,100 (1.7%) were called active. Only a selection was taken, and actives are over-represented in it overall. Potency and affinity values are given separately.
Measured cytotoxicity by item
PROPERTY_LABEL: cytotoxicity (%)

O=C(CSc1nc2ccccc2c(=O)n1Cc1ccco1)NCc1ccco1 ... -1.8
CC(=O)N1CCc2cc(S(=O)(=O)CCC(=O)N3CCN(C(=O)c4ccco4)CC3)ccc21 ... 1.6
Cc1cc(N2CCN(C/C=C/c3ccccc3)CC2)n2ncnc2n1 ... -6.5
Cc1nnc(SCC(=O)Nc2cc(C(F)(F)F)ccc2N2CCOCC2)o1 ... 12.9
Cc1[nH]c(=O)[nH]c(=O)c1NS(=O)(=O)c1ccc2c(c1)CCCC2 ... 10.1
CCOCc1nnc(NC(=O)CSCc2ccccc2)s1 ... -3.4
N#C/C(C(=O)NCc1ccccc1)=C1\SC(CCO)C(=O)N1c1ccccc1 (centres undefined) ... 10.7
O=C(c1ccccc1)N(Cc1ccc(F)cc1)C1CCS(=O)(=O)C1 (centres undefined) ... -9.7
Cc1cccc(CN2CCN(C(=O)c3ccccc3F)CC2)c1 ... 5.3
C=CCn1c(SCC(=O)NCc2ccco2)nc2sc3c(c2c1=O)CCCCC3 ... 2.9
COc1ccc(C(=O)N(CN2CCCC2=O)c2nccs2)cc1OC ... 6.2
CCOc1ccccc1NC(=O)Cn1nnc(C(=O)Nc2ccccc2Cl)c1N ... 8.3
CN1CCCN(C(c2ccccc2)c2ccc(Cl)cc2)CC1 (centres undefined) ... 12.4
CCC(O)c1cc2c(cc1NC(=O)c1ccc(C)cc1)OCCO2 (centres undefined) ... -1.6
CC(=O)Nc1ccc(S(=O)(=O)NCC2CCC(C(=O)N3CCCCCC3)CC2)cc1 (centres undefined) ... -6.2
COc1ccc(N(CC(=O)Nc2cc(Cl)ccc2OC)S(=O)(=O)c2c(C)noc2C)cc1 ... 73.4
O=S(=O)(NCCc1csc(-c2ccccc2)n1)c1ccc2c(c1)OCCO2 ... 6.2
CCOc1ccccc1NC(=O)CN(c1cc(C)cc(C)c1)S(=O)(=O)c1c(C)noc1C ... 6.7
CN(C)CCN1C(=O)C(O)=C(C(=O)c2ccco2)C1c1ccccc1F (centres undefined) ... -4.8
CSCSC1=C(C#N)C(c2ccc(Cl)cc2)C(C(C)=O)=C(C)N1 (centres undefined) ... -18.3
C=CCOC(=O)C1=C(C)NC(SCC(=O)N(CC)CC)=C(C#N)C1c1ccco1 (centres undefined) ... 12.7
CCOc1ccc(N(CC(=O)NC(C)(C)C)S(=O)(=O)c2c(C)noc2C)cc1 ... -7.4
O=c1c2ccccc2nc(SCc2ccccc2)n1Cc1ccco1 ... 8.4
COc1cccc(-c2cc(C(F)(F)F)nc(N3CCCCC3)n2)c1 ... -12.8
CCOC(=O)C1CCN(C(=O)c2ccc(SC)cc2OC)CC1 ... -4.9
Cc1cccc(CS(=O)(=O)Cc2ccc(C(=O)NCc3cccnc3)o2)c1 ... -7.1
CCC(=O)Nc1cc(C(=O)NCC2CCCN2CC)c(OC)cc1N(C)C (centres undefined) ... -2.6
O=C(COc1ccccc1)N(Cc1ccco1)C1CCS(=O)(=O)C1 (centres undefined) ... -19.1
Cc1cc(-c2csc(NC(=O)c3ccc(=O)n(C)n3)n2)c(C)n1CC1CCCO1 (centres undefined) ... -8.1
Nc1ccc(N2CCCCC2)cc1N1CCCCC1 ... 37
CCOc1ccccc1NC(=O)CN(c1ccc(C)cc1)S(=O)(=O)c1c(C)n[nH]c1C ... 52.3
OCCOCCN1CCN(C(c2ccccc2)c2ccc(Cl)cc2)CC1 (centres undefined) ... 50.4
CCOc1ccccc1NC(=O)Cn1nnc(C(=O)NCc2ccco2)c1N ... 63
COc1ccc(N(CC(=O)Nc2cc(C)ccc2OC)S(=O)(=O)c2c(C)noc2C)cc1 ... 11.2
O=C(CSc1nc2ccccc2c(=O)n1Cc1ccco1)NCc1ccccc1 ... 58.8
CCOc1ccccc1NC(=O)Cn1nnc(C(=O)Nc2ccc(C)cc2)c1N ... -0.5
CCOC(=O)C1CCCN(c2c(NCC3CCCO3)c(=O)c2=O)C1 (centres undefined) ... -11.3
O=C(CSc1nc2sc3c(c2c(=O)n1-c1ccccc1)CCCC3)NCc1ccco1 ... 85.6
Cc1oc(-c2ccccc2F)nc1CS(=O)CC(=O)NCc1cccs1 (centres undefined) ... -2.6
CCOc1ccccc1NC(=O)CN(c1ccc(C)cc1)S(=O)(=O)c1c(C)noc1C ... -19.7
Cc1cccc(CN2CCN(C(c3ccccc3)c3ccc(Cl)cc3)CC2)c1 (centres undefined) ... 95.1
CCc1nc(SCC(=O)Nc2cc(C)on2)c2c(C)c(C)sc2n1 ... -1.6
CSc1nc2nc(C)cc(-c3ccccc3)n2n1 ... -10.4
Cc1ccc2nc3ccc(N4CCN(C)CC4)nn3c(=O)c2c1 ... -2.8
